The values you see were collected from ChEMBL document CHEMBL2062471.

experiment: in vivo; settings: SCID/NOD, mouse, po, 30 mg/kg
Description: Plasma concentration in SCID/NOD mouse xenografted with human HDLM-2 cells at 30 mg/kg, po bid for 19 days measured after 3 hrs past pose dose
RESULT_TYPE: concentration at 3 h (µM)

1) CN1CCN(c2cccc(Nc3nc4c(-c5ccc(S(C)(=O)=O)cc5)cccn4n3)c2)CC1    7

----------
assay: in vitro; conditions: mouse, microsomes
Description: Half life in mouse liver microsomes
RESULT_TYPE: half-life

1. CN1CCC(c2cccc(Nc3nc4c(-c5ccc(S(C)(=O)=O)cc5)cccn4n3)c2)CC1    40 min
2. CN1CCN(c2cccc(Nc3nc4c(-c5ccc(S(C)(=O)=O)cc5)cccn4n3)c2)CC1    20 min

----------
test: in vivo; conditions: CD-1, mouse, po, 30 mg/kg
Description: Plasma concentration in CD-1 mouse at 30 mg/kg, po after 6 hrs
This section presents molecules with their documented concentration at 6 h values.
RESULT_TYPE: concentration at 6 h (ng/mL)

1. CN1CCN(c2cccc(Nc3nc4c(-c5ccc(S(C)(=O)=O)cc5)cccn4n3)c2)CC1    535
2. CN1CCC(c2cccc(Nc3nc4c(-c5ccc(S(C)(=O)=O)cc5)cccn4n3)c2)CC1    257
